These entries and their values trace back to patent US20120135912A1.

assayedSystem: T1, human VLA4-Fc (alpha4-Fc/beta1-Fc heterodimer) (human)
T1 construct: Soluble heterodimer from CHO cells, Protein A purified; also called VLA-Fc
T1 sequence (chain, as listed by the source limits assumed, form in doubt, chain 1 of 2): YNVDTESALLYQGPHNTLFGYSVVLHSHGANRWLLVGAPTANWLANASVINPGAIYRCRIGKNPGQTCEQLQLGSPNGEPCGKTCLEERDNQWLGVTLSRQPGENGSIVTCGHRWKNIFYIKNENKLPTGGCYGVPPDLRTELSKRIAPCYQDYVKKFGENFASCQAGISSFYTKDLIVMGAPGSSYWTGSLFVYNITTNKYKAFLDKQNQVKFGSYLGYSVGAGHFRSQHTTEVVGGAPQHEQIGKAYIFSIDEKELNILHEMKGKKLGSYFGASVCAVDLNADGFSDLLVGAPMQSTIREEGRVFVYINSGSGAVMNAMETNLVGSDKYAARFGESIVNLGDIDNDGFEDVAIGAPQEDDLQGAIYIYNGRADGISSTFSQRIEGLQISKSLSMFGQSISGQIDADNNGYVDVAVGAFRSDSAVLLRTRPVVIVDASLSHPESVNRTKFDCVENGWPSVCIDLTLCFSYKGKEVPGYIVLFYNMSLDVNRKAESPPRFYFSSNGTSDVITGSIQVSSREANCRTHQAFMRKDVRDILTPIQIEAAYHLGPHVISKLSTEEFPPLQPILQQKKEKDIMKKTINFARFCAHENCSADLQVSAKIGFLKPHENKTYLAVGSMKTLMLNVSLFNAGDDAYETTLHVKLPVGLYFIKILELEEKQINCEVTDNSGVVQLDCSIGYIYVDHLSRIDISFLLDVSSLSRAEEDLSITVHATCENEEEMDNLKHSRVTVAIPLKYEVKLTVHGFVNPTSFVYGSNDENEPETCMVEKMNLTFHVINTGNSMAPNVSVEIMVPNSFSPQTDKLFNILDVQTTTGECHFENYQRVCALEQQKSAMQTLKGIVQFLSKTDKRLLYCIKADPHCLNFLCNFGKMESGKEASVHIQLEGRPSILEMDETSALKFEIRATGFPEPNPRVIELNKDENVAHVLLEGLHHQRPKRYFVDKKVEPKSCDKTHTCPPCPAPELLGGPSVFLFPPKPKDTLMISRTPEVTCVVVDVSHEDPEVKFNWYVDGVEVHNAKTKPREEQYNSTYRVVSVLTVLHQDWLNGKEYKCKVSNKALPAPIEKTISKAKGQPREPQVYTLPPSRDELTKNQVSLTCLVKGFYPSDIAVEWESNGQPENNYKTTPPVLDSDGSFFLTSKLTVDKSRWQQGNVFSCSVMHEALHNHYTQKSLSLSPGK
T1 sequence (chain, as listed by the source limits assumed, form in doubt, chain 2 of 2): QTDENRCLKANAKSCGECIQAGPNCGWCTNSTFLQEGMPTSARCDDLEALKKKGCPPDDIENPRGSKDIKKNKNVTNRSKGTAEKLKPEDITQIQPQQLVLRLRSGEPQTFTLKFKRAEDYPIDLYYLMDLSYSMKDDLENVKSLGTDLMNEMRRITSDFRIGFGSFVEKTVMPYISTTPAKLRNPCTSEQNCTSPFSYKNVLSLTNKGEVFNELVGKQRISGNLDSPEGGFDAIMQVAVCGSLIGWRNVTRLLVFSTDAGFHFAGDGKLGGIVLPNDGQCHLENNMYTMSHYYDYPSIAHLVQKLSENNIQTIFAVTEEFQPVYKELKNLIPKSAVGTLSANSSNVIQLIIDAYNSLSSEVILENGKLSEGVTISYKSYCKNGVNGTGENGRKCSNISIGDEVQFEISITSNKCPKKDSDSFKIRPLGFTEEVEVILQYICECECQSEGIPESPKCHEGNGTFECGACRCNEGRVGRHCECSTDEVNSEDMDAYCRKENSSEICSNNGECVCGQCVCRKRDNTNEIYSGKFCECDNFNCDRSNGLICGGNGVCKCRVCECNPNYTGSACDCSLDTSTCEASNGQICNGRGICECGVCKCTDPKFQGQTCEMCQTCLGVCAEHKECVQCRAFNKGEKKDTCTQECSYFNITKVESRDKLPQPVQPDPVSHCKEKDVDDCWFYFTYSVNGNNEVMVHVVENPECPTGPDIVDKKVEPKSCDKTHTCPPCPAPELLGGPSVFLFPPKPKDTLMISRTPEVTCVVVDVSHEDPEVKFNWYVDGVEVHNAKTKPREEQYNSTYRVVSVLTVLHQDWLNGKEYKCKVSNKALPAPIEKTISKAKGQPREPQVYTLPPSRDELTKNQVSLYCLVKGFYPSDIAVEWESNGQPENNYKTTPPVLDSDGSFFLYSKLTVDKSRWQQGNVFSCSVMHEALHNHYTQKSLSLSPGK
testDetails: ELISA, VLA4-Fc coated, 1 mM MnCl2; from EC50 values
metricName: fold-improvement in binding relative to Q38L-2D-VCAM-1 (fold)
Give bare numbers, in fold.

What value of fold-improvement in binding relative to Q38L-2D-VCAM-1 has been reported for the following binder? Q38L-2D-VCAM-1 (ligand, also called Q38L 2D-VCAM-1 polypeptide; not shown: His tag) FKIETTPESRYLAQIGDSVSLTCSTTGCESPFFSWRTLIDSPLNGKVTNEGTTSTLTMNPVSFGNEHSYLCTATCESRKLEKGIQVEIYSFPKDPEIHLSGPLEAGKPITVKCSVADVYPFDRLEIDLLKGDHLMKSQEFLEDADRKSLETKSLEVTFTPVIEDIGKVLVCRAKLHIDEMDSVPTVRQAVKELQVYISP
1
